Assay: Biodistribution: organ distribution of F-18 signal in mice
Type: in vivo, male NMRI mice
Conditions: heart, 30 min post i.v. injection
experimental-readout: Organ distribution of F-18 signal, heart

- molecule: "O=C(NCC(=O)N1CCN(c2ccc(OCc3ccccc3)cc2)CC1)c1cccnc1[18F] [Example 12c]"
  result: "1.52 % ID/g"
- molecule: "O=C(NCC(=O)N1CCN(c2ccc(OCc3ccccc3)cc2)CC1)c1ccc([18F])nc1 [Example 10e]"
  result: "1.85 % ID/g"
- molecule: "O=C(NCC(=O)N1CCN(c2ccc(OCc3ccccc3)cc2)CC1)c1cccc(OCC[18F])c1"
  result: "3.47 % ID/g"
- molecule: "O=C(NCC(=O)N1CCN(c2ccc(OCc3ccccc3)cc2)CC1)c1ccnc([18F])c1 [Example 11c]"
  result: "1.54 % ID/g"
- molecule: "O=C(NCC(=O)N1CCN(c2ccc(OCc3ccccc3)cn2)CC1)c1ccnc([18F])c1 [Example 14f]"
  result: "0.93 % ID/g"
